Origin of measurements: ChEMBL document CHEMBL1201862

# Test system: OVCAR-3
# EXPERIMENT: NCI tumour cell line growth inhibition, 48 h
Activity calls are given as the source filed them. No stated cut-off is given here; in the data, active = GI50 up to about 1.1 µM and inactive = higher.
REPORTED_ENDPOINT: GI50

Known results for compounds:
COMPOUND	MEASURED_ON	GI50
O=C(c1ccncc1)n1nc(-c2ccccc2)c(/N=N/c2ccccc2[N+](=O)[O-])c1-c1ccccc1	OVCAR-3	45 µM (inactive)
Cc1cc2nc(N3C(=O)/C(=C/c4ccc(Cl)cc4)N=C3c3ccccc3)sc2cc1C	OVCAR-3	15.7 µM (inactive)
Cc1cccc(NC(=S)NNC(=O)c2cc(-c3ccccc3)nc3ccccc23)c1	OVCAR-3	26.8 µM (inactive)
COP(=O)(OC)C(NC=O)P(=O)(OC)OC	OVCAR-3	> 100 µM (inactive)
CCN(C(=O)N[C@H](C(=O)N[C@@H](C)C(=O)OC)C(C)C)c1ccccc1	OVCAR-3	51.2 µM (inactive)

Lab note: measured GI50 of "COC(=O)c1cc2c3c(c1)Oc1cc(C(=O)OC)cc4c1C3c1c(cc(C(=O)OC)cc1O4)O2" was 10.3 µM (inactive)

Lab note: measured GI50 of CCN(CCO)CC1CCCC2CCCCC21 (centres undefined) was > 100 µM (inactive)

Lab note: measured GI50 of "O=C(C/C(=N/O)c1cc(-c2ccccc2)no1)c1ccccc1" was 23.2 µM (inactive)

Lab note: measured GI50 of Cc1ccc(C2CC(=O)CC(c3ccc(C)cc3)C23C(=O)NC(=O)NC3=O)cc1 (centres undefined) was > 100 µM (inactive)

Lab note: measured GI50 of NC(=O)OCC(COc1ccc(Cl)cc1)OC(=O)c1ccccc1Cl (centres undefined) was 20.3 µM (inactive)

Lab note: measured GI50 of Cc1ncc([N+](=O)[O-])n1CC(O)Cn1ccnc1[N+](=O)[O-] (centres undefined) was > 100 µM (inactive)

Lab note: measured GI50 of CCOP(=O)(OCC)C(C#N)Cc1ccco1 (centres undefined) was > 10 µM (inactive)

Lab note: measured GI50 of COc1ccc(C(CC2(c3ccc(OC)cc3)SCCCS2)NC(C)=O)cc1 (centres undefined) was 45.6 µM (inactive)

Lab note: measured GI50 of "O=C1NC(=O)C(=O)C(c2nc3ccccc3s2)C1=O" was > 100 µM (inactive)

* * *

# Tested on: SF-295
# EXPERIMENT: NCI tumour cell line growth inhibition, 48 h
Active and inactive are the calls of the source. Cut-off read from the data, not from the text of the source: active = GI50 up to about 1.1 µM and inactive = higher.
Answer with one of the outcomes true (1) for active, false (0) for inactive

COMPOUND	CLASS_ASSIGNMENT
COc1cc(C2=C(C)[C@@H]3CN(CC=C3c3ccc(Cl)cc3)C2)c(S(=O)(=O)O)cc1OC	false (0)

Query: recorded result category for C/C=C/C=C\C(=O)C1c2cccc(O)c2C(=O)c2c(O)cc(C)cc21 (stereo not drawn) in this test
true (1)

* * *

# Tested on: HCT-15
REPORTED_ENDPOINT: GI50

MOLECULE	GI50
CCOC(=O)CSc1nnc(CSc2nc(-c3ccccc3)c(-c3ccccc3)[nH]2)n1-c1ccccc1	> 100 µM

Field GI50 (system: HCT-15) for entry "CN(/N=C/c1ccccn1)C1=NCCCCN1" = > 100 µM

Field GI50 (system: HCT-15) for entry NC(Cc1ccc(S(=O)(=O)O)cc1)C(=O)NC(Cc1ccc(S(=O)(=O)O)cc1)C(=O)NC(Cc1ccc(S(=O)(=O)O)cc1)C(=O)O (stereo not drawn) = > 100 µM

Field GI50 (system: HCT-15) for entry NC(Cc1ccccc1)c1nn[nH]n1 (stereo not drawn) = > 100 µM

Field GI50 (system: HCT-15) for entry "Cn1ccnc1CCc1c(Cl)cccc1Cl" = > 100 µM

Field GI50 (system: HCT-15) for entry "O=C(O)c1cc(C(=O)O)cc(N2C(=O)c3ccccc3C2=O)c1" = > 100 µM

Field GI50 (system: HCT-15) for entry "O=C(Cc1nc2c3c(ccc2nc1O)C(=O)c1ccccc1C3=O)C(=O)Nc1ccccc1[N+](=O)[O-]" = > 10 µM

Field GI50 (system: HCT-15) for entry Cc1ncc([N+](=O)[O-])n1CC(O)Cn1ccnc1[N+](=O)[O-] (stereo not drawn) = > 100 µM
